# Measured on: Kallikrein-14 (Homo sapiens, UniProt Q9P0G3)
# Sequence (Q9P0G3 17-267): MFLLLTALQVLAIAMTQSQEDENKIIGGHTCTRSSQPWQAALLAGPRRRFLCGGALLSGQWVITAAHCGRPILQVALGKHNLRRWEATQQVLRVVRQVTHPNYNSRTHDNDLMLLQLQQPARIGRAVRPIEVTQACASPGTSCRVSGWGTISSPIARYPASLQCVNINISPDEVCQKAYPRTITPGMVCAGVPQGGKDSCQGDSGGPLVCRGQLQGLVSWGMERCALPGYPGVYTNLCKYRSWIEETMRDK
# Protocol text: Inhibition of human kallikrein 14 measured after 15 mins at pH 8 by fluorescence assay
# Condition set: read-out: IC50
pIC50: −log10 of the molar value.
Assay endpoint: pIC50

{"Smiles code": "CSc1nc(-c2ccc(Cl)cc2)nn1C(=O)c1ccccc1", "pIC50": 6.01}

P = COc1ccc(C(=O)n2cnnc2N)cc1
Q = Cc1ccc(C(=O)n2nc(-c3cccnc3)nc2N)cc1
Of P and Q , which one carries the higher reported pIC50? Mark your selection by writing its label.
Q
(Q: 5.89, P: 5.46)

----------
# Measured on: Kallikrein-5 (Homo sapiens, UniProt Q9Y337)
# Sequence (Q9Y337 whole entry): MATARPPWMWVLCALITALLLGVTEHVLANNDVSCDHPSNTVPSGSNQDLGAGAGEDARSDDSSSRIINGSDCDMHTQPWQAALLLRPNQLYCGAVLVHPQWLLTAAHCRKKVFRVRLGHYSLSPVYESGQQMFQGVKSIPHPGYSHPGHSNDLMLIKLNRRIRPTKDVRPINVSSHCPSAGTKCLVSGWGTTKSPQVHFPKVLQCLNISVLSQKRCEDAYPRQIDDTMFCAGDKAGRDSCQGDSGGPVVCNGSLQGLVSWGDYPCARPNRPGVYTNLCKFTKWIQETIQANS
# Protocol text: Inhibition of human kallikrein 5 measured after 15 mins at pH 8 by fluorescence assay
# Condition set: read-out: IC50
Assay endpoint: IC50 (µM)

Please review the entries below; each comes with its answer.
{"Smiles code": "COc1ccc(C(=O)n2cnnc2N)cc1", "Measured on": "Kallikrein-5 (Homo sapiens, UniProt Q9Y337)", "IC50 / µM": 0.99}
{"Smiles code": "COc1ccc(C(=O)n2nc(-c3ccccc3)nc2N)cc1OC", "Measured on": "Kallikrein-5 (Homo sapiens, UniProt Q9Y337)", "IC50 / µM": 1.3}

1 = Nc1nc(-c2cccnc2)nn1C(=O)c1ccc(Cl)cc1
2 = CSc1nc(-c2ccc(Cl)cc2)nn1C(=O)c1ccccc1
3 = Cc1ccc(C(=O)n2nc(-c3cccnc3)nc2N)cc1
Sort by IC50, descending. # respond with the labels, arranged in the requested order
1, 3, 2
